Each recorded value in this set is attributed to ChEMBL document CHEMBL4513216.

# protocol.summary: Toxicity liver stage against HepG2, at 10uM
# Type: cell-based
# Design: test concentration 10 uM, cell line HepG2-A16-CD81EGFP
# study.conditions: human, HepG2-A16-CD81EGFP cells; read-out: INHIBITION
measured.parameter: cytotoxicity at 10 µM (%)

> print(dat)
                                    compound     measured.parameter  result.unit  endpoint.result
 1      CN(C)CCN1CCCC12CCN(C(=O)c1cnccn1)CC2  cytotoxicity at 10 µM            %             4.99
 2  CNc1cc(C2CCCN2Cc2ccccc2C(=O)O)ccn1 (configuration not stated)  cytotoxicity at 10 µM            %            -5.28
 3  CCN1CC(COC(=O)c2cc(C)nn2CC)CC1=O (configuration not stated)  cytotoxicity at 10 µM            %            -3.37
 4  CC(C)(C)c1nc(CN2CCC3(CCCO3)CCC2=O)no1 (configuration not stated)  cytotoxicity at 10 µM            %            -4.57
 5  CC(=O)N1CC2(CCN(Cc3ccc(Cl)cc3)CC2)Cc2ccccc21  cytotoxicity at 10 µM            %             14.2
 6  CCN(CC(=O)Nc1cc(C(C)(C)C)no1)Cc1ccc(Cl)s1  cytotoxicity at 10 µM            %             6.13
 7  CN(CCc1ncnn1-c1ccccc1Cl)C1CCS(=O)(=O)C1 (configuration not stated)  cytotoxicity at 10 µM            %             9.53
 8             CN(C)c1nccc(NC(=O)c2ccncc2)n1  cytotoxicity at 10 µM            %            -4.33
 9  Cc1ccc(CN2CCOC3(CCN(C(=O)N4CCCC4)CC3)C2)cc1  cytotoxicity at 10 µM            %              5.7
10  Cc1nc(C(=O)N2CCCC2c2noc(C3CC3)n2)c[nH]1 (configuration not stated)  cytotoxicity at 10 µM            %            -7.06
11      Cn1c2ccccc2c2ncn(CCN3CCOCC3)c(=O)c21  cytotoxicity at 10 µM            %             15.7
12  CCOC(=O)N1CCC2(CCCN(C3CCOCC3)C2=O)C1 (configuration not stated)  cytotoxicity at 10 µM            %             -133

----------
# protocol.summary: Toxicity liver stage against HepG2, at 10uM
# Assay type: cell-based
# Set-up: test concentration 10 uM, cell line HepG2-A16-CD81EGFP
# study.conditions: human, HepG2-A16-CD81EGFP cells; read-out: INHIBITION
measured.parameter: cytotoxicity at 10 µM (%)

> print(dat)
                                    compound     measured.parameter  endpoint.result
 1  Cn1nnnc1SC1CCN(c2ccccc2Cl)C1=O (configuration not stated)  cytotoxicity at 10 µM             5.12
 2  CN1CCC(Cc2cccc(-c3cc(F)ccc3C(=O)O)n2)CC1  cytotoxicity at 10 µM            -3.22
 3         CC(C)(C)C(=O)NCCCc1nc2ccccc2[nH]1  cytotoxicity at 10 µM             5.68
 4  O=C(c1ccc2c(c1)CCO2)N1CCN(c2ccc(Cl)cn2)CC1  cytotoxicity at 10 µM             9.56
 5  NC1CC(C(F)(F)F)=NC=C1c1ccc(Cl)cc1 (configuration not stated)  cytotoxicity at 10 µM             50.2
 6  O=C(O)c1ccc(CC2CCN(S(=O)(=O)N3CCOCC3)C2)cc1 (configuration not stated)  cytotoxicity at 10 µM             1.62
 7  CSCC(=O)NS(=O)(=O)c1ccc(C#N)c(C(F)(F)F)c1  cytotoxicity at 10 µM             17.2
 8  Cc1c(F)cc(C(=O)O)cc1S(=O)(=O)Nc1ccc(C#N)cc1  cytotoxicity at 10 µM            -6.04
 9  CN1CCCCC1c1nc(Cc2cccc(F)c2)no1 (configuration not stated)  cytotoxicity at 10 µM             -161
10  CSC(C)C(=O)NCc1ccc(-n2cncn2)nc1 (configuration not stated)  cytotoxicity at 10 µM             3.28
11  OC[C@@H]1[C@@H](c2ccccc2)CN2CCN(c3ccccn3)C[C@H]12  cytotoxicity at 10 µM            -0.53
12  CC1CCN(C(=O)[C@@H]2C[C@@H]3CCN(CC4CCOCC4)C[C@@H]3O2)CC1  cytotoxicity at 10 µM             7.13
13  Cc1cc(NC(=O)C(c2cccc(F)c2)N2CCOCC2)ccn1 (configuration not stated)  cytotoxicity at 10 µM            0.278
14  Cc1ccc(CN2CCC3(CC2)OC(C(=O)N(C)C)c2ccccc23)o1 (configuration not stated)  cytotoxicity at 10 µM             4.34
15  Cn1c(=O)oc2ccc(S(=O)(=O)N3CCC(c4ccccc4)C3)cc21 (configuration not stated)  cytotoxicity at 10 µM             5.43
16  c1cc([C@H]2C[C@@H]3CCN(Cc4nccs4)C[C@H]3O2)ncn1  cytotoxicity at 10 µM             -150
17  CCOc1ccc(NS(=O)(=O)c2cc(C)c(C(=O)O)s2)cc1F  cytotoxicity at 10 µM            -3.24
18                    COCCCNc1cc(C)nn2cnnc12  cytotoxicity at 10 µM                6
19  Clc1cc(CN2CCCC(Cn3cncn3)C2)c2ncccc2c1 (configuration not stated)  cytotoxicity at 10 µM             6.64
20  CCOCC(=O)N1CCC(C(O)c2ccc(F)cc2)CC1 (configuration not stated)  cytotoxicity at 10 µM            -3.83
21         Cc1nn2c(=O)/c(=C\c3cccs3)sc2nc1=O  cytotoxicity at 10 µM             7.19
22  COCc1nc(CN2CC(Cc3ccccc3)CC2=O)no1 (configuration not stated)  cytotoxicity at 10 µM            -12.8
23  CCS(=O)(=O)N1CCOC2(COCCN(c3nccs3)C2)C1 (configuration not stated)  cytotoxicity at 10 µM              7.4
24         COCCCNC(=O)Cc1nc(-c2ccncc2)n[nH]1  cytotoxicity at 10 µM            -9.72
25  CN(C)c1cc(C2CCCN2)ccn1 (configuration not stated)  cytotoxicity at 10 µM              5.8
26  Cc1noc(C)c1CCC(=O)N1CCCCC1CNS(C)(=O)=O (configuration not stated)  cytotoxicity at 10 µM             8.71
27  C1CCC(c2nc3c(c(N4CC(N5CCOCC5)C4)n2)CCNCC3)C1  cytotoxicity at 10 µM            -10.2
28  CC(C)NC(=O)C1c2c(ncn2C(C)C)CCN1Cc1ccccc1 (configuration not stated)  cytotoxicity at 10 µM            0.167
29  CCCc1cc(NC(=O)c2cccc(N3CCCNC3=O)c2)n[nH]1  cytotoxicity at 10 µM             3.14
30  CC(C)CN1CCC2(CCN(C(=O)c3ccc(F)cc3)CC2)C1=O  cytotoxicity at 10 µM             8.06
31  Cc1nc(C)n(C2CCCN(C(=O)COc3cccc(C#N)c3)C2)n1 (configuration not stated)  cytotoxicity at 10 µM             1.08
32     Cc1nc(N2CCCC2)nc2c1CN(C(=O)NC(C)C)CC2  cytotoxicity at 10 µM             2.94
33  CN(C)CCN(C)C[C@H]1CN2CC[C@H]1C[C@@H]2CNC(=O)Nc1ccsc1  cytotoxicity at 10 µM             9.53
34  CC(Cn1cccn1)NC(=O)NCc1ccc(C(N)=O)cc1 (configuration not stated)  cytotoxicity at 10 µM             -3.2
35       O=c1cc(Cn2cncn2)nc2n1CCCN(CC1CC1)C2  cytotoxicity at 10 µM            -2.65
36  CN1CC[C@H]2[C@H](C[C@@H](CN3CCCC3)N2c2nccs2)C1  cytotoxicity at 10 µM             3.59
37  CNC(=O)c1ccc(C(=O)N2CCCC(n3ccnc3C)C2)cn1 (configuration not stated)  cytotoxicity at 10 µM           -0.248
38  CC(NCC(=O)N1CCc2sccc2C1)c1ccccc1F (configuration not stated)  cytotoxicity at 10 µM              1.8
39      CCOCc1nc(CSc2ccncc2)n(C2CCN(C)CC2)n1  cytotoxicity at 10 µM            -1.45
40  CN1CCN(C=C2N=C(c3cc(-c4ccc(F)cc4)n[nH]3)ON2)CC1  cytotoxicity at 10 µM            -2.08
41  CNC(=O)COc1cccc(CNC(=O)c2c(C)noc2C(C)C)c1  cytotoxicity at 10 µM             -2.8
42  c1cn(-c2cnc(C3CCCNC3)cn2)cn1 (configuration not stated)  cytotoxicity at 10 µM            -25.2
43    CS(=O)(=O)c1ccc(NC(=O)NCCC2=CCCCC2)cc1  cytotoxicity at 10 µM           -0.529
44  COCCN1C(=O)CC[C@@H]2[C@H]1CCN2S(=O)(=O)c1cccs1  cytotoxicity at 10 µM            -87.2
45  O=C([C@H]1CC[C@@H]2[C@@H](CCN2C2CCCC2)O1)N1CCOCC1  cytotoxicity at 10 µM             11.5
46           O=C(C1CC1)N1CCc2ccccc2C12CCNCC2  cytotoxicity at 10 µM             5.35
47  CN(C)CCN1C2(CCN(Cc3nccs3)C2)c2ccccc2S1(=O)=O (configuration not stated)  cytotoxicity at 10 µM            -71.8
